Hello, the source for this data is the supplement of paper PMC6607015, in case you need it.

# Tested on: HeLa MZ
# ASSAY_EXPLANATION: LBPA endosome anti-LBPA integrated intensity (sum per cell), Z-score; higher = more LBPA staining
# CONDITION_DESCRIPTION: compound concentration in added solution (µM; 5 µl added to 20 µl cells): 10; 18 h
Structures can show the parent of a compound that is named as a salt.
EXPERIMENTAL_ENDPOINT: LBPA endosome anti-LBPA integrated intensity (z-score)
Reply briefly: the number, and no unit.

Here's what some known entries look like.
| COMPOUND | VALUE_OBSERVED |
| --- | --- |
| CC(C(=O)O)c1ccc(N2Cc3ccccc3C2=O)cc1 (centres undefined) | 0.541 |
| CCN(CC)CCOC(=O)C(c1ccccc1)c1ccccc1 [Adiphenine hydrochloride] | -1.15 |
| Cc1ccc(N(CC2=NCCN2)c2cccc(O)c2)cc1 [Phentolamine hydrochloride] | 0.635 |
| C[C@@H]1C[C@H]2[C@@H]3C[C@H](F)C4=CC(=O)C=C[C@]4(C)[C@@]3(F)[C@@H](O)C[C@]2(C)[C@@]1(O)C(=O)CO | -0.862 |

# input Request the reported LBPA endosome anti-LBPA integrated intensity (z-score) associated with CC(=O)c1ccc(S(=O)(=O)NC(=O)NC2CCCCC2)cc1 [Acetohexamide]
# output -0.393

# input Request the reported LBPA endosome anti-LBPA integrated intensity (z-score) associated with COc1cc(N)c(Cl)cc1C(=O)NC1CCN(CCCOc2ccc(F)cc2)CC1OC (centres undefined) [Cisapride]
# output 0.977

# input Request the reported LBPA endosome anti-LBPA integrated intensity (z-score) associated with CNCCc1ccccn1 [Betahistine mesylate]
# output -0.427

# input Request the reported LBPA endosome anti-LBPA integrated intensity (z-score) associated with COc1cc(NC(C)CCCN)c2ncccc2c1 (centres undefined) [Primaquine diphosphate]
# output 0.528

# input Request the reported LBPA endosome anti-LBPA integrated intensity (z-score) associated with CCN(CC)CCOC(=O)C(Cc1cccc2ccccc12)CC1CCCO1 (centres undefined) [Nafronyl oxalate]
# output 2.05
